MEASUREMENT NOTES: self-splicing fitness, log relative to wild type (ln ratio); higher = more splicing; Tetrahymena group I intron in knt gene, E. coli kanamycin selection, DiMSum; sequences stand for … in CUCUCU…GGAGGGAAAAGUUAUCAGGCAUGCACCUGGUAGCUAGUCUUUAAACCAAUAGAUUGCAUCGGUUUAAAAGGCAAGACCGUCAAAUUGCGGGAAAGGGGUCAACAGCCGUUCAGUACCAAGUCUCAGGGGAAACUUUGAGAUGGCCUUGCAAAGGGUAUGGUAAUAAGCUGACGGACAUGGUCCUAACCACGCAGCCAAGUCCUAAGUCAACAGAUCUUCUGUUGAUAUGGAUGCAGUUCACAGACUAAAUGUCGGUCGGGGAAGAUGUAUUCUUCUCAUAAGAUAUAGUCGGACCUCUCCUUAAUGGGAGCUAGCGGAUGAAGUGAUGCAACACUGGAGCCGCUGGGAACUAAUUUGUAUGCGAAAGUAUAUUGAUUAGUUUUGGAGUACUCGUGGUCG;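 also: selection with 25 µg/mL kanamycin versus none on LB agar overnight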
CONDITION PARAMETERS: 37 °C
The threshold is inclusive: self-splicing fitness (ln) of exactly -2 counts as True; values below receive False.

Tell me whether self-splicing fitness (ln) is at least -2 here: ACGCAGCAAUAUUACGCUCG
True

Tell me whether self-splicing fitness (ln) is at least -2 here: UCAAAGCAAUAUUACGGUUU
False

Tell me whether self-splicing fitness (ln) is at least -2 here: CCGCAGCAAUAUUACGUUAA
False

Tell me whether self-splicing fitness (ln) is at least -2 here: CCAUAGCAAUAUUACGUUCA
False

Tell me whether self-splicing fitness (ln) is at least -2 here: UAUGAGCAAUAUUACGCGAU
False

Tell me whether self-splicing fitness (ln) is at least -2 here: AAAUAGCAAUAUUACGGGAC
True

Tell me whether self-splicing fitness (ln) is at least -2 here: CACGAGCAAUAUUACGCCCA
True

Tell me whether self-splicing fitness (ln) is at least -2 here: AUCAAGCAAUAUUACGUACG
True

Tell me whether self-splicing fitness (ln) is at least -2 here: CGUUAGCAAUAUUACGAUAG
True

Tell me whether self-splicing fitness (ln) is at least -2 here: ACGGAGCAAUAUUACGGUAC
False

Tell me whether self-splicing fitness (ln) is at least -2 here: UUGUAGCAAUAUUACGUGGU
False

Tell me whether self-splicing fitness (ln) is at least -2 here: GCCUAGCAAUAUUACGCCAA
False

Tell me whether self-splicing fitness (ln) is at least -2 here: GCACAGCAAUAUUACGAGGC
False

Tell me whether self-splicing fitness (ln) is at least -2 here: GCCCAGCAAUAUUACGUUAU
True

Tell me whether self-splicing fitness (ln) is at least -2 here: GCUCAGCAAUAUUACGGAAU
True

Tell me whether self-splicing fitness (ln) is at least -2 here: ACCGAGCAAUAUUACGGGGA
True

Tell me whether self-splicing fitness (ln) is at least -2 here: CACGAGCAAUAUUACGGGCG
True
